target: human recombinant HDAC6 (Homo sapiens); construct: purchased Calbiochem 382180; experiment: HDAC6 enzyme activity inhibition assay (HDAC Fluorimetric Drug Discovery Kit); type: biochemical; settings: human recombinant HDAC6, same protocol as HDAC1; read-out: HDAC6
Measured parameter: IC50 (µM)

Answered cases to consult:
CC(=O)N1CCN(C(=O)N(Cc2ccc(-c3nnc(C(F)(F)F)o3)cc2)c2ccccc2)CC1 [Compound 21364]; 0.0924
O=C(N1CCS(=O)(=O)CC1)N(Cc1ccc(-c2nnc(C(F)(F)F)o2)cc1)c1cccc(Cl)c1 [Compound 21395]; 0.073
O=C(NCCN1CCN(CCc2ccccc2)CC1)N(Cc1ccc(-c2nnc(C(F)F)o2)cc1F)c1ccccc1 [Compound 22014]; 0.219

I. O=C(N1CCS(=O)(=O)CC1)N(Cc1ccc(-c2nnc(C(F)(F)F)o2)cc1F)c1ccc(OC(F)(F)F)cc1 [Compound 21513]
II. O=C(N1CCS(=O)(=O)CC1)N(Cc1ccc(-c2nnc(C(F)(F)F)o2)cc1)c1ccc(-c2cccnc2)cc1 [Compound 21489]
III. O=C(N1CCS(=O)(=O)CC1)N(Cc1ccc(-c2nnc(C(F)F)o2)cc1F)c1ccc(CN2CCN(CC(F)(F)F)CC2)cc1 [Compound 21902]
IV. O=C(N1CCS(=O)(=O)CC1)N(Cc1ccc(-c2nnc(C(F)(F)F)o2)cc1)c1ccc(F)cc1F [Compound 21433]
Put the items in sequence by IC50, from largest down. Reply with the labels, ordered as the question asks.
III, I, II, IV

* * *

biological target: human recombinant HDAC6 (Homo sapiens); construct: purchased Calbiochem 382180; assay: HDAC6 enzyme activity inhibition assay (HDAC Fluorimetric Drug Discovery Kit); type: biochemical; details: human recombinant HDAC6, same protocol as HDAC1; read-out: HDAC6
pIC50: −log10 of the molar value.
Measured parameter: pIC50

a. Cc1ccc(N(Cc2ccc(-c3nnc(C(F)F)o3)cn2)C(=O)N2CCN(C)CC2)cc1
b. O=C(N1CCOCC1)N(Cc1ccc(-c2nnc(C(F)(F)F)o2)cc1F)c1cccc(F)c1
c. CN(Cc1ccc(-c2nnc(C(F)(F)F)o2)cc1)C(=O)N1CCOCC1
d. CCN1CCN(Cc2cccc(N(Cc3ccc(-c4nnc(C(F)F)o4)cc3F)C(=O)N3CCS(=O)(=O)CC3)c2)CC1
Descending sort on pIC50 required. Reply with the labels, ordered as the question asks.
a, b, d, c

* * *

Biological target: human recombinant HDAC6 (Homo sapiens)
Construct: purchased Calbiochem 382180
Sequence (Q9UBN7 1-1215): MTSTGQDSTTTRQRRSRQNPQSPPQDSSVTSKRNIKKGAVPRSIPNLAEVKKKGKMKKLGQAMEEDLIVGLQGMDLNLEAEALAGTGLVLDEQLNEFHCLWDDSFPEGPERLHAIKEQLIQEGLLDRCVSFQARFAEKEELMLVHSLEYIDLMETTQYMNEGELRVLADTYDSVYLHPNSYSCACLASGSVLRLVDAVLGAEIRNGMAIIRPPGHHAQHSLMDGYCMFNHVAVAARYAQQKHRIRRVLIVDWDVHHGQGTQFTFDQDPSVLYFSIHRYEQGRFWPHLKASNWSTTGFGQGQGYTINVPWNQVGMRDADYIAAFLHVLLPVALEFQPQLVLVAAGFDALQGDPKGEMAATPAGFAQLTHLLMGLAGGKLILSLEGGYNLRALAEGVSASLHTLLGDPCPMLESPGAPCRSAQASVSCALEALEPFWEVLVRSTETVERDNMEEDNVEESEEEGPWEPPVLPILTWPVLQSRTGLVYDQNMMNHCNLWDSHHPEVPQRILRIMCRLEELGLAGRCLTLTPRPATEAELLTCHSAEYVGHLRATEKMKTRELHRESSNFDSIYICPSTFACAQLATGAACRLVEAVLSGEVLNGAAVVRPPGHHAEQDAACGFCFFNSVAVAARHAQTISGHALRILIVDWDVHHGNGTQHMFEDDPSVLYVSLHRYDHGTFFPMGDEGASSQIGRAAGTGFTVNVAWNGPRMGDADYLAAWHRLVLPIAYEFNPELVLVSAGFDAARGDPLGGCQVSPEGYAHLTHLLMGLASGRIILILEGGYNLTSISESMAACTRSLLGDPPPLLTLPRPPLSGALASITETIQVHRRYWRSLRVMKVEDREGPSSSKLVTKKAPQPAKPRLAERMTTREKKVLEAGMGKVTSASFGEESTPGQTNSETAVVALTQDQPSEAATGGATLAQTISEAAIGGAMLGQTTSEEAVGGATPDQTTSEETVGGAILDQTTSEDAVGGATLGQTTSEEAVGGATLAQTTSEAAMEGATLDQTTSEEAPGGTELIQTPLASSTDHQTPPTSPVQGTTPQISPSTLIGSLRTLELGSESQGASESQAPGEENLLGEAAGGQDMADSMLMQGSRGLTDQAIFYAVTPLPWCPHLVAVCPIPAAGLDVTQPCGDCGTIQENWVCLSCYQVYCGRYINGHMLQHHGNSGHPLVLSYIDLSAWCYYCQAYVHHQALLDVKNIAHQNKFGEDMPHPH
Assay: HDAC6 enzyme activity inhibition assay (HDAC Fluorimetric Drug Discovery Kit)
Type: biochemical
Conditions: HDAC6 over HDAC1
Measured parameter: HDAC6 selectivity (fold)

O=C(N1CCS(=O)(=O)CC1)N(Cc1ccc(-c2nnc(C(F)F)o2)cc1F)c1ccc(CN2CCOCC2)cc1; 52
O=C(N1CC[C@H](F)C1)N(Cc1ccc(-c2nnc(C(F)F)o2)cc1F)c1ccc(F)c(Cl)c1; 917
CN1CCN(C(=O)N(Cc2ccc(-c3nnc(C(F)F)o3)cc2F)c2ccc(Br)cc2)CC1; 128

P. O=C(N1CCOCC1)N(Cc1ccc(-c2nnc(C(F)F)o2)cc1)c1ccccc1
Q. CCN1CCN(CCCCOc2ccc(N(Cc3ccc(-c4nnc(C(F)F)o4)cc3F)C(=O)N3CCS(=O)(=O)CC3)cc2)CC1
Lower value of HDAC6 selectivity (fold) belongs to which: P or Q ? Kindly state the label of the option you pick.
Q
(Q: 39 fold, P: 204 fold)

A. O=C(N1CCS(=O)(=O)CC1)N(Cc1ccc(-c2nnc(C(F)(F)F)o2)cc1)c1ccc(F)cc1
B. O=C(N1CCS(=O)(=O)CC1)N(Cc1ccc(-c2nnc(C(F)F)o2)cc1F)c1cccc(OC(F)(F)F)c1
Out of A and B , name the one with the higher HDAC6 selectivity (fold). Kindly state the label of the option you pick.
B
(B: 278 fold, A: 68 fold)
